- Tested on: Methylocystis strain SB2
- procedureSummary: Degradation of chlorinated hydrocarbons by Methylocystis strain SB2 grown on ethanol or methane
- Type: cell-based
- conditionInfo: individual chlorinated hydrocarbons
propertyName: degradation by strain SB2 grown on methane

Completed entries (count: 5):
Which degradation by strain SB2 grown on methane is listed for CC(Cl)(Cl)Cl [1,1,1-TCA, 1,1,1-trichloroethane] ?
degraded

Now give it for ClCCl [DCM, dichloromethane] too.
not

Another compound: Cl/C=C/Cl [t-DCE, trans-dichloroethylene]
degraded

Could you do the same for ClC(Cl)Cl [CF, chloroform] , please?
degraded

Same lookup for C=CCl [VC, vinyl chloride] , please.
degraded

Continue with the compound presented below.
For the compound shown here, ClC=C(Cl)Cl [TCE, trichloroethylene] , give the reported degradation by strain SB2 grown on methane.
degraded
